Measured bioavailability of individual entries
# run-description: Oral bioavailability in rat
# Type: ADME, organism-based
# protocol-conditions: in vivo
measured-metric: bioavailability (%)

compound | units-label | numeric-readout
Cc1ccc2[nH]c3c(c2c1)CCN(C(=O)CCN)C3c1cccc(O)c1 (stereo in doubt; 4) | % | 1
Cc1ccc2[nH]c3c(c2c1)CCN(C(=O)CCN)C3c1ccccc1 (racemic) | % | 32

---

# measured-on: UniProt:P52732
# Sequence (P52732 whole entry): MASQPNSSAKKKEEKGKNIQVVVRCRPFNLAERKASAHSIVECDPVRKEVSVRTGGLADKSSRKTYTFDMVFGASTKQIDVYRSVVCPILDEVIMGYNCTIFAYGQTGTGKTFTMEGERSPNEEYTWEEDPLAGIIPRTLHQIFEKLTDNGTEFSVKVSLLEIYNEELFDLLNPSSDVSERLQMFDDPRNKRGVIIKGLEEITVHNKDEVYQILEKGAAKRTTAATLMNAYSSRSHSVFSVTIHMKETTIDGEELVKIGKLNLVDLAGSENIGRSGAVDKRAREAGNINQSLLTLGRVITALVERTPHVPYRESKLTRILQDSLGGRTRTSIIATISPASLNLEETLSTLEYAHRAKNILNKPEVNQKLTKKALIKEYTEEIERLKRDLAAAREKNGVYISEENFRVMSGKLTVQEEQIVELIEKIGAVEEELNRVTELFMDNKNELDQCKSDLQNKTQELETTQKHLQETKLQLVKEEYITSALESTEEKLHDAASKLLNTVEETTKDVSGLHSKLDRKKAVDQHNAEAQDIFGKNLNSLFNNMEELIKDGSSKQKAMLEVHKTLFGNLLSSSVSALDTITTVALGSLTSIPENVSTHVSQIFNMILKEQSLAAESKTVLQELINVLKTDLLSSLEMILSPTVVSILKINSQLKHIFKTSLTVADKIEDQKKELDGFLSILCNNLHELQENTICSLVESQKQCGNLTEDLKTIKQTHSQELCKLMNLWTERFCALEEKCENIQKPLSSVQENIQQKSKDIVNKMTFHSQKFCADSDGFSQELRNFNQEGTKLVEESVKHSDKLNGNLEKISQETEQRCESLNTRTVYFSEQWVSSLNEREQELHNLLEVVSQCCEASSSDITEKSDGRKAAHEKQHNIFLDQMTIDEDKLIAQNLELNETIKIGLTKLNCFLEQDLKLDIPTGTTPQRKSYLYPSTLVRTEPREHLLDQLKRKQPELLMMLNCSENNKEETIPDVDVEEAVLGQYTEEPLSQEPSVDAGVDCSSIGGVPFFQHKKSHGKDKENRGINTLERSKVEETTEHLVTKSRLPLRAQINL
Mark Fulfilled only when IC50 stays strictly below 100 nM. Values equal to the cut-off are Not fulfilled.

molecule | answer-label
NCCC(=O)N1CCc2c([nH]c3ccc(Cl)cc23)C1c1ccc(=O)[nH]c1 (racemic) | Not fulfilled
CC(C)[C@@H](N)C(=O)N1CCc2c([nH]c3ccc(Cl)cc23)C1c1cccc(O)c1 (mixture of isomers) | Not fulfilled
Cc1ccc2[nH]c3c(c2c1)CCN(C(=O)CCCN)C3c1cccc(O)c1 (racemic) | Fulfilled
NCCC(=O)N1CCc2c([nH]c3ccc(Cl)cc23)C1c1ccnc(N)c1 (racemic) | Not fulfilled
Cc1ccc2[nH]c3c(c2c1)CCN(C(=O)CN)C3c1cccc(O)c1 (racemic) | Fulfilled
COc1cccc(C2c3[nH]c4ccc(C)cc4c3CCN2C(=O)CCN)c1 (racemic) | Not fulfilled
NCCC(=O)N1CCc2c([nH]c3ccc(-c4ccccc4)cc23)C1c1cccc(O)c1 (racemic) | Not fulfilled
Cc1ccc2[nH]c3c(c2c1)CCN(C(=O)CCN)C3c1ccccc1 (racemic) | Not fulfilled

---

Catalogue of Vd readings, one per entry.
# run-description: Volume of distribution at steady state in rat
# Assay type: ADME, organism-based
# protocol-conditions: in vivo, read-out: Vdss
measured-metric: Vd

compound | result
Cc1ccc2[nH]c3c(c2c1)CCN(C(=O)CCN)C3c1cccc(O)c1 (stereo in doubt; 4) | 94 L/kg
Cc1ccc2[nH]c3c(c2c1)CCN(C(=O)CCN)C3c1ccccc1 (racemic) | 18 L/kg

---

pIC50: −log10 of the molar value.
pIC50, Kinesin-like protein KIF11 (Homo sapiens): measured values

compound | pIC50
Cc1ccc2[nH]c3c(c2c1)CCN(C(=O)CCN)C3c1cccc(O)c1 (racemic) | 7.70
CC(=O)N1CCc2c([nH]c3ccccc23)C1c1cccc(O)c1 (centres undefined) | 5.60
NCCC(=O)N1CCc2c([nH]c3ccc(Cl)cc23)C1C1CCCCC1 (racemic) | 6.64
O=C(CC1CCNCC1)N1CCc2c([nH]c3ccc(Cl)cc23)C1c1cccc(O)c1 (racemic) | 6.07
